SYSTEM NAME: Oxysterols receptor LXR-beta (Homo sapiens)
ASSAY SUMMARY: ATG_LXRb_TRANS: Attagene TRANS-FACTORIAL HepG2 Assay for human Liver X Receptor beta (LXRb) (AID 2282981)
EXPERIMENTAL CONDITIONS: HepG2 Attagene TRANS GAL4-LXRb reporter, mRNA
Inconclusive results are not listed. Calls of active or inactive are those of the source. How the source made its calls: active means hit-call score of the fitted dose curve at least 0.9, where 1 is the maximum; inconclusive means response in the unintended direction; inactive means score below 0.9.
QUANTITY MEASURED: outcome

Field: example entries. Status: answers known.
> print(dat)
                                   compound  value.measured
1                Nc1ccc(O)c([N+](=O)[O-])c1        inactive
2                                CCCCC(=O)O        inactive
3                  Clc1cc(Cl)c(Cl)c(Cl)c1Cl        inactive
4  CC1C(C)(C)C2=C(C(=O)CCC2)C1(C)C (stereo not given)        inactive
5                           CCCCCC1=CCCC1=O        inactive
6    O=C1c2ccccc2C(=O)c2cc(S(=O)(=O)O)ccc21        inactive

Input line: Answer with the recorded outcome for the compound listed here: Nc1nc(N)nc(-c2ccccc2)n1
Output line: inactive

Input line: Answer with the recorded outcome for the compound listed here: Oc1c(Cl)cc(Cl)c(Cl)c1Cl
Output line: inactive

Input line: Answer with the recorded outcome for the compound listed here: Cc1cc(C)n(CO)n1
Output line: inactive

Input line: Answer with the recorded outcome for the compound listed here: CCN(CC)c1cccc(C)c1
Output line: inactive

Input line: Answer with the recorded outcome for the compound listed here: CC1(C)C(=O)N(CO)C(=O)N1CO
Output line: inactive

Input line: Answer with the recorded outcome for the compound listed here: O=C(Oc1ccccc1)c1ccccc1O
Output line: inactive

Input line: Answer with the recorded outcome for the compound listed here: C=CC(=O)OCCCCCCOC(=O)C=C
Output line: inactive

Input line: Answer with the recorded outcome for the compound listed here: O=C1CCCCCCCCCCC1
Output line: inactive

Input line: Answer with the recorded outcome for the compound listed here: CC(C)C(=O)OCCc1ccccc1
Output line: inactive
